Origin of measurements: PubChem BioAssay AID743093

Let's look at some compounds and their measured inhibition.
assay_info: late stage P. falciparum gametocyte viability inhibitors, primary screen, ATP luminescence, HTS (AID 743093);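 note: 0% = DMSO wells and 100% = medium only without gametocytes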
settings: P. falciparum stage V gametocytes, 24 h, at 10.9 µM, stronger effect = higher value
Out of some 150,000 compounds screened, about 100 (0.067%) were called active. Shown is part of a subset that was picked to be rich in actives.
Answer format: numeric, % implied, no suffix.

COc1cc(OC)c(C(=S)N2CCCC2)cc1OC : -6.55
CCOc1ccc(-n2c(SCC(N)=O)nnc2-c2ccco2)cc1 : -6.2

Suppose we examine the compound CN(Cc1ccccc1)C(=O)c1ccc(COc2ccccc2)cc1 ; what inhibition value has been reported? -8.25

Suppose we examine the compound Nc1cccnc1Sc1ccccc1 ; what inhibition value has been reported? -1.9

Suppose we examine the compound O=C(CCl)N(Cc1cccc([N+](=O)[O-])c1)c1cccc(Cl)c1 ; what inhibition value has been reported? -7.41

Suppose we examine the compound Cc1ccc(-c2ccnc3[nH]n(-c4ccccc4)c(=O)c23)cc1 ; what inhibition value has been reported? -20.9

Suppose we examine the compound COc1ccc(N(CC(=O)NCCSCc2cccc(Cl)c2)S(C)(=O)=O)cc1 ; what inhibition value has been reported? 1.88

Suppose we examine the compound Cc1cccc(NC(=O)COC(=O)CCc2ccccc2)c1C ; what inhibition value has been reported? -7.45

Suppose we examine the compound COc1ccccc1-n1cn[nH]c1=S ; what inhibition value has been reported? 2.72

Suppose we examine the compound Cc1cc2nc3n(c2cc1C)CC1CC(C(=O)NCCC(C)C)N(C)C31 (stereo unspecified) ; what inhibition value has been reported? 6.88

Suppose we examine the compound COC(=O)c1ccc(COc2ccc(/C=N/NC(=O)C(=O)Nc3ccc(OC)cc3)cc2OC)o1 ; what inhibition value has been reported? 2.74

Suppose we examine the compound CCN(CC)CCCNC(=S)N(CCO)Cc1cc2cc3c(cc2[nH]c1=O)OCO3 ; what inhibition value has been reported? 4.58

###

Let's look at some molecules and their measured inhibition.
assay_info: late stage P. falciparum gametocyte viability inhibitors, primary screen, ATP luminescence, HTS (AID 743093);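 note: 0% = DMSO wells and 100% = medium only without gametocytes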
settings: P. falciparum stage V gametocytes, 24 h, at 10.9 µM, stronger effect = higher value
About 100 (0.067%) of roughly 150,000 compounds were called active. Many of the other results were omitted from the sample, so actives are more common in it than they were.
Answer format: numeric, % implied, no suffix.

O=C(c1ccco1)N1CCN(C(=O)C2c3ccccc3Oc3ccccc32)CC1 : 42.8
CCc1nc(N2CCN(C(C)=O)CC2)c2c3c(sc2n1)CCCC3 : -2.91
C[C@@H]1NC(=O)[C@@]2(C)[C@@H](c3ccccc3)[C@H]3COc4ccccc4[C@@H]3N2C1=O : -7.28

Suppose we examine the molecule O=C(O)c1ccccc1NC(=O)c1ccccc1-c1ccccc1C(=O)O ; what inhibition value has been reported? -11.4

Suppose we examine the molecule CCOc1ccc2ccccc2c1/C=N/NC(=O)c1c(C)cc(C)[nH]c1=O ; what inhibition value has been reported? 23.8

###

assay_info: late stage P. falciparum gametocyte viability inhibitors, primary screen, ATP luminescence, HTS (AID 743093);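 note: 0% = DMSO wells and 100% = medium only without gametocytes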
settings: P. falciparum stage V gametocytes, 24 h, at 10.9 µM, stronger effect = higher value
Among all 150,000 compounds or so, about 100 (0.067%) were called active. Shown is part of a subset that was picked to be rich in actives.
recorded_metric: inhibition (%)
Answer format: numeric, % implied, no suffix.

Cc1c(CN2CC[C@@H](N3CCN(c4ccccn4)CC3)[C@H](O)C2)[nH]c2ccc(F)cc12 : -10.1
CC(=O)c1ccc(N2Cc3ccccc3C2)cc1 : 9.41
Oc1c(Br)cc(/C=N/NC(=S)NCC2CCCO2)cc1Br (stereo not given) : -1.52
CNC1(c2nnnn2-c2c(C)cccc2C)CCOC(C)(C)C1 (stereo not given) : 5.71
COc1ccc(OC)c(C(=O)NC(CC(N)=O)c2ccc(N3CCC(N4CCCCC4)CC3)c([N+](=O)[O-])c2)c1 (stereo not given) : 0.29

Suppose we examine the compound O=C(O)CCC(=O)N(Cc1ccccc1)Cc1ccccc1 ; what inhibition value has been reported? -4.24

Suppose we examine the compound COc1ccc(S(=O)(=O)NCCCc2ccccc2)cc1 ; what inhibition value has been reported? -6.3

Suppose we examine the compound COc1cc(OC)cc(-c2sc3ccc(OC)cc3c2-c2ccc3cc[nH]c3c2)c1 ; what inhibition value has been reported? 5.06

Suppose we examine the compound Cn1c(Nc2cccc(Cl)c2)nc2ccccc21 ; what inhibition value has been reported? -9.18

Suppose we examine the compound CC(C)(C)OC(=O)C[C@H]1C/C=C\C[C@@H](CC(=O)N[C@H](CO)Cc2ccccc2)C(=O)NC[C@@H](c2ccccc2)OC1=O ; what inhibition value has been reported? 20.4

###

Let's look at some compounds and their measured inhibition.
assay_info: late stage P. falciparum gametocyte viability inhibitors, primary screen, ATP luminescence, HTS (AID 743093);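 note: 0% = DMSO wells and 100% = medium only without gametocytes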
settings: P. falciparum stage V gametocytes, 24 h, at 10.9 µM, stronger effect = higher value
Among all 150,000 compounds or so, about 100 (0.067%) were called active. The full list was thinned out, with actives kept by preference.
Answer format: numeric, % implied, no suffix.

Below, each entry is followed by its recorded inhibition result.
Cc1cccc(NC(=O)CCN2CC(C)CC(C)C2)c1 (configuration not stated) : -2.59
COc1ccccc1-n1c(SCC(=O)O)nc2sc3c(c2c1=O)CCC3 : -0.96
O=C(NC(=O)N1CCSCC1)c1c(Cl)cccc1Cl : -10.9

Suppose we examine the compound CCOC(=O)c1cnc(COc2ccccc2Cl)[nH]c1=O ; what inhibition value has been reported? -10.2

Suppose we examine the compound CN(Cc1ccccc1)Cc1ccccc1F ; what inhibition value has been reported? 19.5

Suppose we examine the compound Cn1cc(CN2CCC(C(O)CCc3ccccc3)CC2)c(-c2ccccc2F)n1 (configuration not stated) ; what inhibition value has been reported? 9.2

Suppose we examine the compound CCN1N=C(c2ccccc2)CCC1=O ; what inhibition value has been reported? -22.1

Suppose we examine the compound CCOC(=O)c1c(C)[nH]c2c1-c1ccccc1C(=O)C2=O ; what inhibition value has been reported? 50.2

Suppose we examine the compound CCOC(=O)C1=C(c2ccc(OC)cc2)C(=O)c2ccccc2C1=O ; what inhibition value has been reported? -27.7

Suppose we examine the compound Cc1c(NC(=O)CSCc2ccccc2)cccc1C(=O)O ; what inhibition value has been reported? 19

Suppose we examine the compound COC(=O)C1(C)NC(c2ccc(F)cc2)C2C(=O)N(c3ccccc3)C(=O)C21 (configuration not stated) ; what inhibition value has been reported? -19.3

Suppose we examine the compound CCOC(=O)c1c(C)[nH]c(=S)c(C#N)c1-c1ccccc1 ; what inhibition value has been reported? -28.7

###

Let's look at some molecules and their measured inhibition.
assay_info: late stage P. falciparum gametocyte viability inhibitors, primary screen, ATP luminescence, HTS (AID 743093);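 note: 0% = DMSO wells and 100% = medium only without gametocytes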
settings: P. falciparum stage V gametocytes, 24 h, at 10.9 µM, stronger effect = higher value
Out of some 150,000 compounds screened, about 100 (0.067%) were called active. Many of the other results were omitted from the sample, so actives are more common in it than they were.
Answer format: numeric, % implied, no suffix.

Below, each entry is followed by its recorded inhibition result.
COc1ccccc1C1=CC(=O)C[C@H](c2ccc(F)cc2)C1 : -32.5
CCOC(=O)C1(CCOc2ccccc2)CCN(Cc2cc(OC)cc(OC)c2)CC1 : 9.31
Cc1ccc(C(=O)NNC2=Nc3cc([N+](=O)[O-])ccc3OC2)cc1 : 5.16
Cc1ccccc1NC(=O)N1CCCC1C(=O)NCc1ccccc1 (stereo unspecified) : 1.78
CN(c1ccc(OCC(=O)NC2=NCCS2)cc1)S(=O)(=O)c1ccc(F)cc1 : -8.94
Cc1cc(C)cc(NC(=O)NC2CCN(CC(=O)Nc3cccc(Cl)c3C)CC2)c1 : -10.3
COc1cc2c(cc1OC)C(c1ccccc1Br)NC(=O)C2 (stereo unspecified) : 1.27
O=S(=O)(c1ccc(Cl)cc1)N1CCCN(c2ccc(C(F)(F)F)cn2)CC1 : -9.4

Suppose we examine the molecule CC(C)(C)OC(=O)Nc1ccc([C@@H](NC(=O)OC(C)(C)C)C(=O)OC(C)(C)C)cc1 ; what inhibition value has been reported? -5.54

Suppose we examine the molecule COc1ccccc1OCCCCCCN1CCN(C)CC1 ; what inhibition value has been reported? 14.7

Suppose we examine the molecule Cc1cc(N/N=C\c2ccc(Br)cc2)nc(-n2nc(C)cc2C)n1 ; what inhibition value has been reported? -0.66

###

assay_info: late stage P. falciparum gametocyte viability inhibitors, primary screen, ATP luminescence, HTS (AID 743093);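 note: 0% = DMSO wells and 100% = medium only without gametocytes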
settings: P. falciparum stage V gametocytes, 24 h, at 10.9 µM, stronger effect = higher value
In all, about 150,000 compounds went through this assay and about 100 (0.067%) were called active. The full list was thinned out, with actives kept by preference.
recorded_metric: inhibition (%)
Answer format: numeric, % implied, no suffix.

C/C(=N/NC(=O)CN1CCN(S(=O)(=O)c2ccc(Br)cc2)CC1)c1ccncc1 : -12.4
O=C(Cc1c(F)cccc1Cl)Nc1ncc([N+](=O)[O-])s1 : 39.5
CN(C(=O)c1cccc(NC(=O)Cc2ccc([N+](=O)[O-])cc2)c1)C1CCC1 : -9.69

Suppose we examine the molecule Cc1ccc(S(=O)(=O)NCCCn2ccnc2)cc1C(=O)NC(C)C ; what inhibition value has been reported? 2.4
